Data credit: PubChem BioAssay (NCI)

TGI: recorded values
Test system: M19-MEL melanoma
protocol-details: NCI tumour cell line growth inhibition, 48 h

Item: CC(=O)C(CN(C)Cc1ccccc1)C(c1ccccc1)c1c(O)c2ccccc2oc1=O (configuration not stated) | TGI: > 100 µM

====

System: DU-145 prostate
protocol-details: NCI tumour cell line growth inhibition, 48 h
TGI: recorded values

O=C(O)CC1C(=O)OC2C3COC(=O)c4cc(O)c(O)c(O)c4-c4c(cc(O)c(O)c4O)C(=O)OC2C(OC(=O)c2cc(O)c(O)c4c2C1C(O)C(=O)O4)C(OC(=O)c1cc(O)c(O)c(O)c1)O3 (centres undefined) :: > 100 µM

Item: CC(=O)C1=C(C)N(c2ccc(C)cc2)C2(O)C=CC(=O)C3=C(O)c4ccccc4C(=O)C312 (centres undefined) | TGI: > 100 µM
